Assay: Pharmacokinetics in female BALB/c nude mice bearing A375 xenografts, 1 day dosing (PK and PD study): plasma, tumor and brain concentrations, AUC
Format: in vivo
Settings: mouse, plasma, po, 2 mg/kg, 2 mg/kg p.o. TID × 1 day; post 3rd dose; 24 h; read-out: Mean Concentration in Plasma ± SEM
PROPERTY: concentration at 24 h (ng/mL)

smiles_str=CCN(C)S(=O)(=O)Nc1ccc(F)c(Oc2ccc3ncn([C@H]4COC5(CCN(C6CC7(C6)CN(c6cc8c(cc6F)c(N6CCC(=O)NC6=O)nn8C)C7)CC5)C4)c(=O)c3c2)c1C#N test_value=9.4

###

Assay: Pharmacokinetics in female BALB/c nude mice bearing A375 xenografts, 1 day dosing (PK and PD study): plasma, tumor and brain concentrations, AUC
Format: in vivo
Conditions: mouse, tumor, po, 3 mg/kg, 3 mg/kg p.o. BID × 1 day; post 2nd dose; 48 h; read-out: Mean Concentration in Tumor ± SEM
PROPERTY: concentration at 48 h (ng/g)

molecule="CCN(C)S(=O)(=O)Nc1ccc(F)c(Oc2ccc3ncn([C@H]4COC5(CCN(C6CC7(C6)CN(c6cc8c(cc6F)c(N6CCC(=O)NC6=O)nn8C)C7)CC5)C4)c(=O)c3c2)c1C#N [Compound 26]" test_value=7.94

###

Test: Pharmacokinetics in female BALB/c nude mice bearing A375 xenografts, 1 day dosing (PK and PD study): plasma, tumor and brain concentrations, AUC
Assay type: in vivo
Conditions: mouse, brain, po, 1 mg/kg, 1 mg/kg p.o. TID × 1 day; post 3rd dose; 4 h; read-out: Mean Concentration in Brain ± SEM
PROPERTY: concentration at 4 h (ng/g)

molecule="CCN(C)S(=O)(=O)Nc1ccc(F)c(Oc2ccc3ncn(C4CC5(CCN(C6CC7(C6)CN(c6cc8c(cc6F)c(N6CCC(=O)NC6=O)nn8C)C7)CC5)C4)c(=O)c3c2)c1C#N (stereo not shown) [Compound 141]" value_units=ng/g test_value=17.9

###

Experiment: Pharmacokinetics in female BALB/c nude mice bearing A375 xenografts, 1 day dosing (PK and PD study): plasma, tumor and brain concentrations, AUC
Assay type: in vivo
Conditions: mouse, brain, po; 3 mg/kg p.o. BID × 1 day; read-out: Brain AUC at 24 hours, Average
PROPERTY: AUC at 24 h (ng·h/mL)

molecule="CCN(C)S(=O)(=O)Nc1ccc(F)c(Oc2ccc3ncn([C@H]4COC5(CCN(C6CC7(C6)CN(c6cc8c(cc6F)c(N6CCC(=O)NC6=O)nn8C)C7)CC5)C4)c(=O)c3c2)c1C#N [Compound 26]" test_value=522

###

Assay: Example 6 pharmacokinetics assay for PKPD study (plasma, tumor, liver)
Type: in vivo, BALB/c nude mice
Conditions: mouse, plasma, po; 100 mg/kg, single dose; 12 h; read-out: Concentration in Plasma (mean ± SEM)
PROPERTY: concentration at 12 h (ng/mL)

compound="CC(C)(C)c1nc(-c2cccc(NS(=O)(=O)c3c(F)cccc3F)c2F)c(-c2ccnc(N)n2)s1 [Dabrafenib, dabrafenib, reference compound]" test_value=6.74

###

Target: BRAF V600E (Homo sapiens, UniProt P15056+Q96SW2, V600E)
Construct: knock-in of the HiBiT tag to the endogenous BRAF V600E locus; host or cells: A375.10 (A375 clonal line, CRISPR HiBiT knock-in at the endogenous BRAF V600E locus)
Sequence (P15056 whole entry V600E): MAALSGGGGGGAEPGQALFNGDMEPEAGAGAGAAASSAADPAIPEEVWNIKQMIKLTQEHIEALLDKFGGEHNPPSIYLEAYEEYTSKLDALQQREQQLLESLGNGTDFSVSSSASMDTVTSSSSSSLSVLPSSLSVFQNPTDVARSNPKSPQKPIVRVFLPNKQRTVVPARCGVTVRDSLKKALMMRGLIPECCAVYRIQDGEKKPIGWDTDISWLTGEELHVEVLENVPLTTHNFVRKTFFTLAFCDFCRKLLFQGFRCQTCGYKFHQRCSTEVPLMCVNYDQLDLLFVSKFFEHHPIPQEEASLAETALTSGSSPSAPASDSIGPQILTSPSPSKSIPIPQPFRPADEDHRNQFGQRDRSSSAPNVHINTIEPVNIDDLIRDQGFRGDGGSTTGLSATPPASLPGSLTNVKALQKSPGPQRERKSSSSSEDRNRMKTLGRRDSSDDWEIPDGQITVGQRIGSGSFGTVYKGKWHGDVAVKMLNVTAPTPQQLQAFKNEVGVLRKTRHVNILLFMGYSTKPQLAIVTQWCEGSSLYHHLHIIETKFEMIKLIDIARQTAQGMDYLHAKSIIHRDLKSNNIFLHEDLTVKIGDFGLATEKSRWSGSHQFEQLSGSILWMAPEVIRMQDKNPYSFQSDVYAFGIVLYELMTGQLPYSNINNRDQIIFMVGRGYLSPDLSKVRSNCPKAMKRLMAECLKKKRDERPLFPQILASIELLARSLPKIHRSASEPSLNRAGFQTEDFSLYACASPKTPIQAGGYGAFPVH
Sequence (Q96SW2 whole entry): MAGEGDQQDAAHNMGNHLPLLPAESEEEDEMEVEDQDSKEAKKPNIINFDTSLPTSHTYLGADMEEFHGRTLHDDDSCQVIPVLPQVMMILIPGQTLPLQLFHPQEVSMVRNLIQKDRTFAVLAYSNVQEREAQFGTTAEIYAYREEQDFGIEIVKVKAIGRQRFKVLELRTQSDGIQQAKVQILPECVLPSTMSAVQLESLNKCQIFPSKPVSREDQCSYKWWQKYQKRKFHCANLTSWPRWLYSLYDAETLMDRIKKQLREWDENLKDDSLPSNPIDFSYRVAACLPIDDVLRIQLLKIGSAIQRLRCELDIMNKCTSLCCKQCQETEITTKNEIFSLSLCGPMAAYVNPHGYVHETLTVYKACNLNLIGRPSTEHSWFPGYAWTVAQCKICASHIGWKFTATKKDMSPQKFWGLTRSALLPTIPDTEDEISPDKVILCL
Sequence (Q16531 whole entry partner): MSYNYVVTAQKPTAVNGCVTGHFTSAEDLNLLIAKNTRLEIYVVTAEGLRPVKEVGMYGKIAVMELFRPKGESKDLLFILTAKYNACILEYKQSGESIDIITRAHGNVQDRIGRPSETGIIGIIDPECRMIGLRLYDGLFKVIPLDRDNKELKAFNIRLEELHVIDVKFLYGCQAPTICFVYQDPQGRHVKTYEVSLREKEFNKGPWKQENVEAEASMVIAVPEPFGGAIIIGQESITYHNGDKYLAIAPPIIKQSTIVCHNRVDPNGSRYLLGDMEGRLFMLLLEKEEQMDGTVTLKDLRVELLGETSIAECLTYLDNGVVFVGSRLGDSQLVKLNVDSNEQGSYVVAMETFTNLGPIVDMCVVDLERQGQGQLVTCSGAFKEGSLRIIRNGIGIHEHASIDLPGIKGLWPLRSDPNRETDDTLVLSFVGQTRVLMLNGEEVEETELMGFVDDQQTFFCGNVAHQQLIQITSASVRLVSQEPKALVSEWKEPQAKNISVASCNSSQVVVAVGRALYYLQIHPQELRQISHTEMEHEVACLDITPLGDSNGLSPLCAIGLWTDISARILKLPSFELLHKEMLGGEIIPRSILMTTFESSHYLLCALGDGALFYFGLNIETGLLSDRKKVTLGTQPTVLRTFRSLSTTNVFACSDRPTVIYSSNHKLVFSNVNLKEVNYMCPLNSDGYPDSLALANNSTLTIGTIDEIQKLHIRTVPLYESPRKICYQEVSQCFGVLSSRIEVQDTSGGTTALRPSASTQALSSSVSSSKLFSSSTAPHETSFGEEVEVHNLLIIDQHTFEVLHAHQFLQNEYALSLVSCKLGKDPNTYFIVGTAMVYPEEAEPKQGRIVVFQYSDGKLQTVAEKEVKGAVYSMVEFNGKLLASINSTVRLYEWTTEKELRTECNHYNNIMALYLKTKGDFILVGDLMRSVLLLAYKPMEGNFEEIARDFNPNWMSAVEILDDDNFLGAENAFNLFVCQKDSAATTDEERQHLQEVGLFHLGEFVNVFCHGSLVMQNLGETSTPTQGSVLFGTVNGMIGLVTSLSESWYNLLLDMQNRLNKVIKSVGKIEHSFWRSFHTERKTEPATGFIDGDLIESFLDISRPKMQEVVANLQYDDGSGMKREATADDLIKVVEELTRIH
Experiment: BRAF V600E HiBiT Degradation Assay
Format: cell-based
Settings: A375.10 cells, BRAF V600E, 2 hours; inflection point; read-out: HiBiT-Degradation A375.10 BRAF 2 hours IP
PROPERTY: DC50

compound="CCN(C)S(=O)(=O)Nc1ccc(F)c(Oc2ccc3ncn([C@H]4COC5(CCN(C6CCC(c7cc8c(cc7F)c(N7CCC(=O)NC7=O)nn8C)CC6)CC5)C4)c(=O)c3c2)c1F (single isomer, unassigned)" property=DC50 test_value="< 1 µM"
compound="CCN(C)S(=O)(=O)Nc1ccc(F)c(Oc2ccc3ncc(CCC4CCN(C5CCC(c6cc7c(cc6F)c(N6CCC(=O)NC6=O)nn7C)CC5)CC4)nc3c2)c1C#N (single isomer, unassigned) [Compound 128]" property=DC50 test_value="< 1 µM"
